Target: Polyunsaturated fatty acid 5-lipoxygenase (Homo sapiens) (UniProt P09917)
Sequence (whole entry): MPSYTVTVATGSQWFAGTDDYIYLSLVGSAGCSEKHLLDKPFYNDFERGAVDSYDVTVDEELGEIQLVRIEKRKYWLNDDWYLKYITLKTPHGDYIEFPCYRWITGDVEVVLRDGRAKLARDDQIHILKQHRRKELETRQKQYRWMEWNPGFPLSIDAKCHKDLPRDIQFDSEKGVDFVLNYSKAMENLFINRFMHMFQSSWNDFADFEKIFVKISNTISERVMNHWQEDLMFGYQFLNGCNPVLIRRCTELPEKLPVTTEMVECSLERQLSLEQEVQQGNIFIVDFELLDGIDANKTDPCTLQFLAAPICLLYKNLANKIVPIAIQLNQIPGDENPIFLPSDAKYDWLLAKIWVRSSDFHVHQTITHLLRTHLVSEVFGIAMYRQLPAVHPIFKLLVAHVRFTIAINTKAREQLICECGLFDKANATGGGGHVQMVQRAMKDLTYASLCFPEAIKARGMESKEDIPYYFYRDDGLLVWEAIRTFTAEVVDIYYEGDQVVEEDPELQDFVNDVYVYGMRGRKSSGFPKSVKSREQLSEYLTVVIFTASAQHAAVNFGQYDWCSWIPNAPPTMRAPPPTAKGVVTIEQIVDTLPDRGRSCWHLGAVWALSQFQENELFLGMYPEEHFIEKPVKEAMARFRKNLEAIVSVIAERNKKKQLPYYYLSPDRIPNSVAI
Test: Inhibition of 5-LOX (unknown origin) at 10 uM
property.label: inhibition (%)
Give the number; % is assumed, so skip it.

Asked: State inhibition on Polyunsaturated fatty acid 5-lipoxygenase (Homo sapiens) (UniProt P09917). Entry: O=C(O)Cc1ccccc1Nc1c(Cl)cccc1Cl [DICLOFENAC SODIUM]
Given back: 16

Asked: State inhibition on Polyunsaturated fatty acid 5-lipoxygenase (Homo sapiens) (UniProt P09917). Entry: `Nc1cc(O)nc2c1c(-c1ccccc1)nn2-c1ccc(S(N)(=O)=O)cc1`
Given back: 0

Asked: State inhibition on Polyunsaturated fatty acid 5-lipoxygenase (Homo sapiens) (UniProt P09917). Entry: `NS(=O)(=O)c1ccc(-n2nc(-c3ccccc3)c3c(-c4cccs4)cc(C(F)(F)F)nc32)cc1`
Given back: 0

Asked: State inhibition on Polyunsaturated fatty acid 5-lipoxygenase (Homo sapiens) (UniProt P09917). Entry: `NS(=O)(=O)c1ccc(-n2nc(-c3ccccc3)c3c(C(F)(F)F)cc(C(F)(F)F)nc32)cc1`
Given back: 0

Asked: State inhibition on Polyunsaturated fatty acid 5-lipoxygenase (Homo sapiens) (UniProt P09917). Entry: `Cc1cc(O)nc2c1c(-c1ccccc1)nn2-c1ccc(S(N)(=O)=O)cc1`
Given back: 0
